Below, each entry is listed alongside its reported EC50 (nM), OVCAR 5 cells (cAMP).
Target: T1, RXFP1 receptor (endogenous, on OVCAR5 cells) (UniProt Q9HBX9 1-757, limits assumed)
T1 sequence (looked up): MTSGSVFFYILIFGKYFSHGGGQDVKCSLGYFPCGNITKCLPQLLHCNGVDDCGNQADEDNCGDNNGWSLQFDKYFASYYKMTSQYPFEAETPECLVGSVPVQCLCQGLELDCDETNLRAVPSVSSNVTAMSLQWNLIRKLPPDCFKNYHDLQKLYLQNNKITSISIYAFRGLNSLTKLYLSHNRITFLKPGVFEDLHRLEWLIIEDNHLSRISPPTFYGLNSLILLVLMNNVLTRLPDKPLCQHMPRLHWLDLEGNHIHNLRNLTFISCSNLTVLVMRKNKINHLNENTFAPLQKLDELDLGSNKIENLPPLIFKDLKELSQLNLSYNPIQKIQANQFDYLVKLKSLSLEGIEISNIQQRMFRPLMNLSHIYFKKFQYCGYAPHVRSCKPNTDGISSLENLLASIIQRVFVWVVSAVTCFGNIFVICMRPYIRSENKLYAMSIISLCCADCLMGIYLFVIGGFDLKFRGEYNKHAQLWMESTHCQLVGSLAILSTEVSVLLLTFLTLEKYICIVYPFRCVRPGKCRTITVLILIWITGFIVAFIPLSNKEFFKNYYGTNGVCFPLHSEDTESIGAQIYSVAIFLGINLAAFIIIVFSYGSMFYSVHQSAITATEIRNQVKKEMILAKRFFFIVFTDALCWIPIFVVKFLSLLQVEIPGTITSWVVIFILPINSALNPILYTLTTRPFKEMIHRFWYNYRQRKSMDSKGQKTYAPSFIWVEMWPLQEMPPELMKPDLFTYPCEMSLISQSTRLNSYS
Assay: cell-based or functional assay
Starred links: 1 amine or outer side, 2 acyl side, 3 side chain; linkers in the order of their positions; H or OH if unused. Non-standard residues stand in square brackets, D forms with d. Groups on a side chain read outwards from the residue. *: point of attachment. TTDS = 4-[3-[2-[2-(3-aminopropoxy)ethoxy]ethoxy]propylamino]-4-oxo-butanoyl; Trp(5-F) = N[C@@H](Cc1c[nH]c2ccc(F)cc12)C(=O)O; γGlu = O=C(O)[C@H](CCC(=O)[*:2])N[*:1]; Stearoyl = CCCCCCCCCCCCCCCCCC(=O)*; Palmitoyl = CCCCCCCCCCCCCCCC(=O)*; αMeK = C[C@](N)(CCCCN)C(=O)O; Aib = CC(C)(N)C(=O)O
Provide the reading as a plain figure in nM.

{"Binder": "Ac-LEGRERVRAK(Ac)I[Aib][Aib]EGK([TTDS-TTDS-TTDS-γGlu-γGlu-γGlu-Palmitoyl])ST[Trp(5-F)]S[Aib]RRK(Ac)-NH2 [peptide of SEQ ID NO: 92]", "EC50 (nM), OVCAR 5 cells (cAMP)": 0.1}
{"Binder": "Ac-LEGREKVRAK(Ac)I[Aib][Aib]EGK([TTDS-TTDS-TTDS-γGlu-γGlu-γGlu-Stearoyl])STWS[αMeK]RAK(Ac)-NH2 [peptide of SEQ ID NO: 30]", "EC50 (nM), OVCAR 5 cells (cAMP)": 0.21}
{"Binder": "Ac-LEGREKVR[Aib]K(Ac)I[Aib][Aib]EGK([TTDS-TTDS-TTDS-γGlu-γGlu-γGlu-Palmitoyl])STWS[Aib]RAK(Ac)-NH2 [peptide of SEQ ID NO: 82]", "EC50 (nM), OVCAR 5 cells (cAMP)": 0.54}

Shifting focus to the binder that follows.
Quick one: EC50 (nM), OVCAR 5 cells (cAMP) of Ac-LEGREKVRAK(Ac)I[Aib][Aib]EGK([TTDS-TTDS-TTDS-γGlu-γGlu-γGlu-Palmitoyl])SQWS[Aib]RKK(Ac)-NH2 [peptide of SEQ ID NO: 63] ?
1.45
